B1: HDV Ribozyme (parent)
chain: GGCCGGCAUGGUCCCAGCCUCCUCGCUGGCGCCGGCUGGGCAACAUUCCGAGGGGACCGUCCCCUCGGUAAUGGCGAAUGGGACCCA

variants of: B1; experiment: self-cleavage, relative activity (ratio to wild type); higher = more cleavage; co-transcriptional
Lab note: anything with self-cleavage at or over 0.2 counts as yes; the rest go in no.

MUTATION_LABEL | DISCRETE_LABEL
C26U C48U | yes

Q: // inclusive: self-cleavage at least 0.2? input: A42G C64U
Ans: yes

Q: Same lookup for G40C C62G , please.
Ans: no

Q: Same lookup for C18A G50C , please.
Ans: yes

Data credit: the RNAGym collection of RNA variant scans (doi:10.7554/elife.80360)
